target: glutathione-S-transferase (GST) tagged LXRalpha LBD (ligand binding domain) (Homo sapiens); construct: purchased Invitrogen pv4655; test: LanthaScreen TR-FRET Liver X Receptor Coactivator Assay, co-activator recruitment to LXRalpha LBD; type: biochemical; settings: efficacy at max dose, in relation to reference dual agonist T0901317; read-out: LXR alpha Activity @ max dose (%)
Note to self: use Fulfilled only for Emax readings below 20%; a reading exactly at 20% still gets Not fulfilled.

Prompt: Answer whether the molecule CN(CCn1cncn1)C(=O)c1ccc(N2CCC(CC3CCN(C(=O)[C@](O)(c4cc(Cl)cc(Cl)c4)C(F)(F)F)CC3)CC2)cc1Cl has Emax strictly less than 20%
Response: Fulfilled

Prompt: Similarly, CNC(=O)c1ccc(N2CCC(CC3CCN(C(=O)[C@](O)(c4ccccc4)C(F)(F)F)CC3)CC2)cc1Cl ?
Response: Not fulfilled

Prompt: Follow-up item: Cc1cc(N2CCC(CC3CCN(C(=O)[C@](O)(c4cccc(OC(C)C)c4)C(F)(F)F)CC3)CC2)ccc1C(=O)N(C)C
Response: Fulfilled

Prompt: What do you get for CNC(=O)c1ccc(N2CCC(OC3CCN(C(=O)C(O)(c4cccc(F)c4)C(F)(F)F)CC3)CC2)cc1Cl (stereo not shown) ?
Response: Not fulfilled

Prompt: Thanks! And COc1cc(F)cc([C@](O)(C(=O)N2CCC(CC3CCN(c4ccc(C(=O)N(C)C)c(Cl)n4)CC3)CC2)C(F)(F)F)c1 ?
Response: Fulfilled

Prompt: Likewise for O=C(c1ccc(N2CCC(OC3CCN(C(=O)[C@](O)(c4ccccc4)C(F)(F)F)CC3)CC2)cc1Cl)N1CCC[C@H]1CO ?
Response: Not fulfilled

Prompt: For CN(C)C(=O)c1ccc(N2CCC(CC3CCN(C(=O)[C@](O)(c4cccc(OC(F)(F)F)c4)C(F)(F)F)CC3)CC2)nc1Cl then?
Response: Fulfilled

Prompt: Input CN(C)C(=O)c1ccc(N2CCC(CC3CCN(C(=O)[C@](O)(c4cc(F)cc(Cl)c4)C(F)(F)F)CC3)CC2)cc1
Response: Not fulfilled

Prompt: What would you report for CC(C)c1cccc(C(O)(C(=O)N2CCC(CC3CCN(c4ccc(C(=O)N(C)C)c(Cl)n4)CC3)CC2)C(F)(F)F)c1 (stereo not shown) ?
Response: Fulfilled

Prompt: What do you have for O=C(c1ccc(N2CCC(CC3CCN(C(=O)[C@](O)(c4ccccc4)C(F)(F)F)CC3)CC2)cc1Cl)N1CCC1 ?
Response: Not fulfilled

Prompt: And then CN(C)C(=O)c1ccc(N2CCC(CC3(C)CCN(C(=O)[C@](O)(c4cccc(Cl)c4)C(F)(F)F)CC3)CC2)cc1Cl , what is it?
Response: Fulfilled

Prompt: What do you have for COc1ccccc1C1(C(=O)N2CCC(CC3CCN(c4ccc(C(=O)N(C)C)c(Cl)n4)CC3)CC2)CCC1 ?
Response: Not fulfilled

Prompt: Queued: CCOc1cccc([C@@](O)(C(=O)N2CCC(CC3CCN(c4ccc(C(=O)N(C)C)c(C)c4)CC3)CC2)C(F)(F)F)c1
Response: Fulfilled

Prompt: Please answer likewise for CN(C)C(=O)c1ccc(N2CCC(CC3CCN(C(=O)[C@](O)(c4cccc(F)c4)C(F)(F)F)CC3)CC2)nc1Cl
Response: Not fulfilled

Prompt: Item: CNC(=O)c1ccc(N2CCC(CC3CCN(C(=O)C4(c5ccccc5F)CCCC4)CC3)CC2)cc1Cl
Response: Fulfilled

Prompt: Same question, CN(C)C(=O)c1ccc(N2CCC(CC3CN(C(=O)[C@](O)(c4cccc(Cl)c4)C(F)(F)F)C3)CC2)nc1Cl this time
Response: Not fulfilled

Prompt: Also COc1nc(N2CCC(CC3CCN(C(=O)[C@](O)(c4ccccc4)C(F)(F)F)CC3)CC2)ccc1C(=O)N(C)C ?
Response: Not fulfilled

Prompt: Query CN(C)CCNC(=O)c1ccc(N2CCC(CC3CCN(C(=O)[C@](O)(c4ccccc4)C(F)(F)F)CC3)CC2)cc1Cl next
Response: Not fulfilled

Prompt: Check CN(C)C(=O)c1ccc(N2CCC(CC3CCN(C(=O)[C@@](O)(c4cccc(Br)c4)C(F)(F)F)CC3)CC2)nc1Cl too.
Response: Fulfilled

Prompt: Now the same for CN(C)C(=O)c1ccc(N2CCC(CC3CCN(C(=O)[C@](O)(c4ccccc4)C(F)(F)F)CC3)CC2)nc1Cl
Response: Not fulfilled

Prompt: Same read-out for CCOc1cccc([C@@](O)(C(=O)N2CCC(C)(CC3CCN(c4ccc(C(=O)N(C)C)c(Cl)n4)CC3)CC2)C(F)(F)F)c1 ?
Response: Fulfilled

---

molecular target: glutathione-S-transferase (GST) tagged LXRalpha LBD (ligand binding domain) (Homo sapiens, UniProt Q13133); construct: purchased Invitrogen pv4655; assay: LanthaScreen TR-FRET Liver X Receptor Coactivator Assay, co-activator recruitment to LXRalpha LBD; format: biochemical; conditions: efficacy at max dose, in relation to reference dual agonist T0901317; read-out: LXR alpha Activity @ max dose (%)
Sequence (Q13133 209-447 limits assumed): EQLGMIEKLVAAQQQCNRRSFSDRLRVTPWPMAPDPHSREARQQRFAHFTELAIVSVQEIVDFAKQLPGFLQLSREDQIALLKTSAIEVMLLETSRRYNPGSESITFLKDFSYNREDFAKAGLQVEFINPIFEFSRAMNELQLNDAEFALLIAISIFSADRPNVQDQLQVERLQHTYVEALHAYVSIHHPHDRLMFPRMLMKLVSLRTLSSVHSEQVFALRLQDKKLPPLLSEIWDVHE
So basically: Emax at 9% or higher? That is True. Lower than 9%? That is False.

Prompt: Please check the record CN(C)C(=O)c1ccc(N2CCC(CC3CCN(C(=O)[C@](O)(c4cccc(OC(F)(F)F)c4)C(F)(F)F)CC3)CC2)cc1Cl [Example 2-91] and state if its Emax is at or above 9%.
Response: True

Prompt: And COc1cccc([C@@](O)(C(=O)N2CC(CC3CCN(c4ccc(C(=O)N(C)C)c(Cl)c4)CC3)C2)C(F)F)c1 [Example 2-70] ?
Response: False

Prompt: // same read-out, input: CC(C)c1cccc([C@@](O)(C(=O)N2CCC(CC3CCN(c4ccc(C(=O)N(C)C)cc4)CC3)CC2)C(F)(F)F)c1 [Example 2-125]
Response: True

Prompt: Query CNC(=O)c1ccc(N2CCC(CC3CCN(C(=O)[C@@](O)(c4ccccc4)C(F)(F)F)CC3)CC2)nc1Cl [Example 7-140] next
Response: True

Prompt: What do you have for CN(C)C(=O)c1ccc(N2CCC(CC3CCN(C(=O)C4(c5ccccc5Cl)CC4)CC3)CC2)nc1Cl [Example 7-53] ?
Response: True

Prompt: Okay, and O=C(c1ccc(N2CCC(CC3CCN(C(=O)[C@](O)(c4ccccc4)C(F)(F)F)CC3)CC2)cc1Cl)N1CCC(c2ccncc2)C1 (some centres unmarked) [Example 4-17] ?
Response: True

Prompt: Item: CN(C)C(=O)c1ccc(N2CCC(OC3CCN(C(=O)C(O)(c4ccc(Cl)cc4)C(F)(F)F)CC3)CC2)cc1Cl (centres unmarked) [Example 2-23]
Response: False

Prompt: Try CNC(=O)c1ccc(N2CCC(CC3CCN(C(=O)[C@](O)(c4ccccc4F)C(F)(F)F)CC3)CC2)nc1Cl [Example 7-145] next.
Response: True

Prompt: Follow-up item: O=C(c1ccc(N2CCC(CC3CCN(C(=O)[C@](O)(c4cc(Cl)cc(Cl)c4)C(F)(F)F)CC3)CC2)cc1Cl)N1CCC[C@H]1CO [Example 4-24]
Response: False

Prompt: Quick one: CN(C)C(=O)c1ccc(N2CCC(CC3CN(C(=O)C(O)(c4cccc(C(F)(F)F)c4)C(F)(F)F)C3)CC2)cc1Cl (centres unmarked) [Example 2-66]
Response: True

Prompt: For CNC(=O)c1ccc(N2CCC(CC3CCN(C(=O)[C@](O)(c4cccc(C(F)(F)F)c4)C(F)(F)F)CC3)CC2)cc1Cl [Example 7-128] then?
Response: True

Prompt: # iterate: CN(C)C(=O)c1ccc(N2CCC(CC3CCN(C(=O)C(O)(c4ccc(Cl)cc4)C(F)(F)F)CC3)CC2)cc1Cl (centres unmarked) [Example 2-15]
Response: False

Prompt: Okay, and COc1cccc([C@@](O)(C(=O)N2CCC(CC3CCN(c4ccc(C(=O)N(C)C)c(Cl)c4)CC3)CC2)C(F)(F)F)c1 (single isomer, unassigned) [Example 2-34] ?
Response: False

Prompt: Try the compound CNC(=O)c1ccc(N2CCC(CC3CCN(C(=O)[C@](O)(c4ccccc4)C(F)(F)F)CC3)CC2)nc1Cl [Example 7-141]
Response: True

Prompt: Record: COCCN(C)C(=O)c1ccc(N2CCC(OC3CCN(C(=O)[C@](O)(c4ccccc4)C(F)(F)F)CC3)CC2)cc1Cl [Example 4-14]
Response: True

Prompt: Also, CN(C)C(=O)c1ccc(N2CCC(CC3CCN(C(=O)[C@](O)(c4cc(Cl)cc(Cl)c4)C(F)(F)F)CC3)CC2)cc1 [Example 2-133] please.
Response: False

Prompt: Queued: CN(C)C(=O)c1ccc(N2CCC(CC3CCN(C(=O)C(O)(c4cccc(C#N)c4)C(F)(F)F)CC3)CC2)nc1Cl (centres unmarked) [Example 7-78]
Response: True

Prompt: For CN(C)C(=O)c1cnc(N2CCC(CC3CCN(C(=O)[C@](O)(c4ccccc4)C(F)(F)F)CC3)CC2)cc1Cl [Example 7-2] then?
Response: True

Prompt: Check CN(C)C(=O)c1ccc(N2CCC(CC3CN(C(=O)[C@](O)(c4cccc(OC(F)(F)F)c4)C(F)(F)F)C3)CC2)cc1Cl [Example 2-63] too.
Response: True

Prompt: Query CN(C)C(=O)c1ncc(N2CCC(CC3CCN(C(=O)[C@](O)(c4ccccc4)C(F)(F)F)CC3)CC2)cc1Cl [Example 2-4] next
Response: True

Prompt: Repeat with COc1cc(Cl)cc([C@@](O)(C(=O)N2CCC(CC3CCN(c4ccc(C(=O)N(C)C)c(Cl)n4)CC3)CC2)C(F)(F)F)c1 [Example 7-107]
Response: False

Prompt: Also check CN(C)C(=O)c1ncc(N2CCC(CC3CCN(C(=O)C(O)(c4cccc(C(F)(F)F)c4)C(F)(F)F)CC3)CC2)cc1Cl (centres unmarked) [Example 2-5]
Response: True

Prompt: Note, next up: CN(C)C(=O)c1ccc(N2CCC(CC3CCN(C(=O)[C@](O)(c4cc(Cl)cc(Cl)c4)C(F)F)CC3)CC2)cc1Cl [Example 2-121]
Response: False

Prompt: How about this compound: COc1cccc([C@@](O)(C(=O)N2CCCC(CC3CCN(c4ccc(C(=O)N(C)C)c(Cl)c4)CC3)CC2)C(F)(F)F)c1 (some centres unmarked) [Example 2-161]
Response: False
